# System: MDA-MB-468 breast
# Test: NCI tumour cell line growth inhibition, 48 h; in the data active = GI50 below about 0.43 µM; inactive = the rest
*1 amine or outer side, *2 acyl side, *3 side chain or, on linkers, in order; H or OH if unused. Where a SMILES comes first, the peptide text is derived from it. [ ]: non-standard residue; d: D form. The star is where a group is joined. X11 = C/C=C/CC(C)C(O)[C@H](N[*:1])C(=O)[*:2]; Decanoyl = CCCCCCCCCC(=O)*; Leu(ol) = CC(C)C[C@H](N)CO; Iva = CC[C@](C)(N)C(=O)O; Aib = CC(C)(N)C(=O)O
Thanks in advance; please answer with one of these: true = active, false = inactive

# Compound, Cat
data = [
    ("CC(C)[C@@H]1C=C2CC[C@H]3[C@](C)(CN)CCC[C@]3(C)[C@H]2CC1", "false"),
    ("Clc1cccc(/C=N/Nc2nc(N/N=C/c3cccc(Cl)c3)nc(N3CCOCC3)n2)c1", "false"),
    ("Nc1n[nH]c2cccc(C#Cc3cccc(C(=O)Nc4ccc(CN5CCOCC5)c(C(F)(F)F)c4)c3)c12", "false"),
]

### Prompt Hey, what did the test say about CCCCCCCCCCn1cc[n+](C)c1 ?
### Response false

### Prompt Field: outcome | Entry: COc1ccc(CN2C(=O)/C(=C\c3cc(OC)c(OC)c(OC)c3)c3ccccc32)cc1
### Response false

### Prompt Look up the recorded call for O=C1c2cc3c(cc2-c2c1c1ccc(F)cc1c(=O)n2C[C@H](O)[C@@H](O)[C@H](O)CO)OCO3 in this test.
### Response true

### Prompt Hey, what did the test say about C/C=C/CC(C)C(O)[C@H](NC(=O)[C@@H]1CCCN1C(=O)C(C)(C)NC(=O)CCCCCCCCC)C(=O)N[C@@](C)(CC)C(=O)N[C@@H](CCC(N)=O)C(=O)N[C@H](CCC(N)=O)C(=O)NC(C)(C)C(=O)NC(C)(C)C(=O)N[C@@H](CCC(N)=O)C(=O)N[C@H](CC(C)C)C(=O)N[C@H](CO)CC(C)C (stereo partly drawn) (Decanoyl-[Aib]P[X11][Iva]Q[dQ][Aib][Aib]Q[dL][Leu(ol)]) ?
### Response false

### Prompt How was Nc1ccccc1SC(CC(=O)c1ccccc1)c1cccc([N+](=O)[O-])c1 (centres undefined) classified in this test?
### Response false

### Prompt Which outcome was entered for the compound Nc1c(C(=O)Nc2cccc(C(F)(F)F)c2)sc2nc3c(cc12)CCCCC3 in this test?
### Response true
